Each entry below lists one item and its recorded viability value.
# testDetails: growth inhibitors of H69AR lung tumor, primary screen, human, duplicate replicates (AID 580);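 note: 100% = mean luminescence of untreated wells and 0% = no signal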
# experimentalContext: H69AR lung tumor cells viability, ATP luminescence, 72 h; at 10 µM; stronger effect = lower value
Report the figure in % without appending any unit label.

In the examples that follow, each entry is paired with its recorded viability.
CN(C)S(=O)(=O)c1ccc(C(=O)Nc2ccccc2C(=O)O)cc1
94.6
NC(=O)CSc1nnc(-c2cnccn2)n1-c1ccccc1
89.8
COC(=O)c1ccc(-c2ccc(CNCC(O)c3ccccc3)o2)cc1 (stereo not drawn)
101
CCn1c(=O)cc(OCC(=O)NCCCN2CC(C)CC(C)C2)c2ccccc21 (stereo not drawn)
74.7
CS(=O)(=O)NCc1ccc(C(=O)NCc2ccccc2)cc1
113
O=C1NC2=C(C(=O)CCC2)C(c2ccc3ncccc3c2)N1 (stereo not drawn)
98.4

Exam item: Which viability value belongs to CSCCC(NC(=O)c1occc1C)C(=O)O (stereo not drawn) ?
Marked response: 103

Exam item: // repeat for Cc1ccc(-n2c(Cn3cnc4ccccc43)nnc2SCC(=O)O)cc1 and report
Marked response: 97.7

Exam item: Now give it for CCOc1cc(NC(=O)c2ccco2)c(OCC)cc1NC(=O)Cc1cccc(OC)c1 too.
Marked response: 86.7

Exam item: Do the same for Cc1nn(-c2ccccc2)c2sc(C(=O)N3CCOCC3)cc12 please
Marked response: 87.3

Exam item: Can you check Fc1ccc(NCc2nnc(SCc3nnc(-c4ccccc4)o3)n2CC2CCCO2)cc1 (stereo not drawn) next?
Marked response: 78.9

Exam item: Another compound: O=C(CSc1nc2ccccc2s1)N1CCOCC1
Marked response: 90.4

Exam item: Further, for Cc1ccc(Nc2cc(C)nc3ncnn23)c(Cl)c1 ?
Marked response: 97

Exam item: Moving on to the next compound: CCn1ncc(Cl)c1C(=O)Nc1ccncc1
Marked response: 98.6

Exam item: Can you handle COc1ccc(N2CCN(CCCNC(=O)C3(S(=O)(=O)c4ccc(Cl)cc4)CC3)CC2)cc1 next?
Marked response: 83.1

Exam item: Repeat for the following compound: Cc1c(C(=O)OC2CCCCC2)[nH]c2c1C(=O)CC(C)(C)C2
Marked response: 78.8

Exam item: Try the compound Cc1cc(NC(=O)NC(=O)c2cccc(OC(F)(F)C(F)F)c2)n[nH]1
Marked response: 85.2

Exam item: Same question, Cc1ccc(S(=O)(=O)NCCNC(=O)c2ccccc2)cc1 this time
Marked response: 99.2

Exam item: Consider next the compound Cc1cc(C)c2nc(N)sc2c1 in the same way.
Marked response: 103

Exam item: Next up: Cc1cc(C)c(-c2cc(C(=O)Nc3c(C)n(C)n(-c4ccccc4)c3=O)[nH]n2)c(O)c1
Marked response: 105

Exam item: Here is the next compound: O=C(COC(=O)CCc1c[nH]c2ccccc12)NC1CCS(=O)(=O)C1 (stereo not drawn)
Marked response: 90.1

Exam item: And then CCOc1ccc(N(CC(=O)NC2CCCC2)S(=O)(=O)c2c(C)[nH]c(=O)[nH]c2=O)cc1 , what is it?
Marked response: 101

Exam item: What would you report for CC(C(=O)N1CCc2ccccc21)N1CCc2ccccc2C1 (stereo not drawn) ?
Marked response: 91.6

---

# testDetails: growth suppression of yeast trafficking mutant, preliminary HTS, modulators of trafficking downstream of Golgi apparatus project, 1536-format plate, OD 615 nm (AID 637)
# experimentalContext: yeast transport mutant growth, absorbance 615 nm, 18 h; stronger effect = higher value
Active and inactive are the calls of the source. Rule as the data show it: active = inhibition above about 30%; inactive = the rest.
testReadout: inhibition

// worked examples, inhibition included
CC(=O)N(C)C1(c2nnnn2CCOC(=O)Nc2ccc(Cl)cc2)CCCCC1
-8.33% (inactive)
CCOC(=O)CSc1cn2c(n1)CCC2
-8.87% (inactive)

Next, consider the following compound.
Exam item: // query inhibition value for entry CC(C)OCCCNC(=O)c1cc2c(s1)CS(=O)(=O)C2
Marked response: -8.5% (inactive)
